# Experimental details: Ability to bind to the alpha IIb beta-3 integrin expressed as inhibitory concentration against ADP-stimulated aggregation of human gel-filtered platelets
Measure: IC50

[in] Could you please provide reported IC50 for O=C(O)C[C@H](NC(=O)CN1CCCC(CCc2ccc3c(n2)NCCC3)C1=O)c1cccnc1 (some centres undefined) ? Thanks!
[out] > 3 µM

[in] Supply measured IC50 of "CCCc1ccc(NCc2ccc3c(n2)NCCC3)c(=O)n1CC(=O)N[C@@H](CC(=O)O)c1cccnc1" in your reply.
[out] > 3 µM

[in] Give IC50 for "C#C[C@H](CC(=O)O)NC(=O)Cn1c(C2CC2)ccc(NCc2ccc3c(n2)NCCC3)c1=O"
[out] > 3 µM

[in] Specify measured IC50 for "O=C(O)C[C@H](NC(=O)Cn1c(C2CC2)ccc(NCc2ccc3c(n2)NCCC3)c1=O)c1ccc2c(c1)OCC2" .
[out] > 3 µM

[in] Please look at this compound and report its IC50: "O=C(O)C[C@H](NC(=O)Cn1c(C2CC2)ccc(NCc2ccc3c(n2)NCCC3)c1=O)c1cccc(F)c1"
[out] > 3 µM

[in] Note down IC50 recorded for "Cc1cnc(NCc2ccc3c(n2)NCCC3)c(=O)n1CC(=O)N[C@@H](CC(=O)O)c1cccnc1"
[out] > 3 µM

[in] Tell me its IC50 given "O=C(O)C[C@H](NC(=O)Cn1c(C2CC2)ccc(NCc2ccc3c(n2)NCCC3)c1=O)c1cccnc1" as the entry.
[out] > 3 µM

[in] Recall and state the measured IC50 for "Cc1ccc(NCc2ccc3c(n2)NCCC3)c(=O)n1CC(=O)N[C@@H](CC(=O)O)c1cccnc1" .
[out] > 3 µM

[in] Write down IC50 measured for item "O=C(O)C[C@H](NC(=O)Cn1cccc(NCc2ccc3c(n2)NCCC3)c1=O)c1cccnc1"
[out] > 3 µM
